assay system: recombinant Human Phosphodiesterase B2 (PDE4B2) (Homo sapiens, UniProt Q07343)
Sequence (Q07343 1-564 isoform Q07343-2): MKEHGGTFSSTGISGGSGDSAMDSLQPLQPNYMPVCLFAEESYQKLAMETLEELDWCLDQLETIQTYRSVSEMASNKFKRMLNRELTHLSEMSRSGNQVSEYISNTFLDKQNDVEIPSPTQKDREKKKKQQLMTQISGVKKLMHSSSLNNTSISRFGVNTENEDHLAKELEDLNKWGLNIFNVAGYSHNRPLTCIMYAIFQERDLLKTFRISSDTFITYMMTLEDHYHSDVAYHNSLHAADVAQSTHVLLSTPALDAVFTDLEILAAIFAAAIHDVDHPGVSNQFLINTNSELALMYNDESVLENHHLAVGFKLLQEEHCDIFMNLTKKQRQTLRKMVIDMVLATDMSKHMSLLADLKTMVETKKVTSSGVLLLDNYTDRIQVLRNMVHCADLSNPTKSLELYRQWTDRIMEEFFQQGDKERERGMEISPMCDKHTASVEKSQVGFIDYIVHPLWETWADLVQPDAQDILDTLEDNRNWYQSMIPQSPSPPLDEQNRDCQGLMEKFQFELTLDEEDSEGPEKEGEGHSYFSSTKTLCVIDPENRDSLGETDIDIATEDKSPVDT
test name: Human Phosphodiesterase B2 Radiometric Assay (yttrium silicate SPA beads, [3H]cyclic AMP)
Format: biochemical
condition details: recombinant human PDE4B2, radiometric SPA assay, 8 nM [3H]cyclic AMP; read-out: PDE4B2 pIC50 (converted)
IC50 listing for selected compounds.
State the value with its unit after it.

Incoming: Supply recorded IC50 for CC(C)NCCOc1ccc(-c2cccc(-n3c(=O)n([C@H]4CC[C@@H](NC(=O)c5cn6cc(F)ccc6n5)CC4)c(=O)c4cc(F)cnc43)c2)cc1 [Example 342] here.
Outgoing: 0.0316 nM

Incoming: For CCCCc1ccc(C(=O)N[C@H]2CC[C@@H](n3c(=O)c4cc(F)cnc4n(-c4cccc(-c5ccc(CN6C[C@@H](C)N[C@@H](C)C6)cc5)c4)c3=O)CC2)nc1 [Example 302] , write its IC50.
Outgoing: 0.1 nM

Incoming: Give IC50 for O=C(N[C@H]1CC[C@@H](n2c(=O)c3cc(F)cnc3n(-c3cccc(-c4ccc(CN5CCCCC5)cc4)c3)c2=O)CC1)c1cn2c(n1)CCCC2 [Example 119]
Outgoing: 0.316 nM

Incoming: Please list IC50 recorded for the compound CC(C)(C)OC(=O)N1CCN(Cc2ccc(-c3cccc(-n4c(=O)n([C@H]5CC[C@@H](NC(=O)c6cn7cc(F)ccc7n6)CC5)c(=O)c5cc(F)cnc54)c3)cc2)CC1 [Example 51]
Outgoing: 0.0398 nM

Incoming: Identify measured IC50 associated with CN(C)Cc1ccc(-c2cccc(-n3c(=O)n([C@H]4CC[C@@H](NC(=O)c5cn6cc(F)ccc6n5)CC4)c(=O)c4cc(F)cnc43)c2)c(O)c1 [Example 94]
Outgoing: 0.316 nM
